# Tested on: acute myeloid leukemia cell line MOLM-13
# Procedure text: MOLM-13 cell survival, CellTiter-Glo, single drug testing
# Assay type: cell-based
# Condition label: Homo sapiens, MOLM-13, 72 h, FIG. 3 single drug test with cisplatin control, read-out: IC50
Endpoint name: IC50 (nM)
Give bare numbers, in nM.

Q: Would you mind telling me what IC50 value was observed for CC(C)(C)c1cc(NC(=O)Nc2ccc(-c3cn4c(n3)sc3cc(OCCN5CCOCC5)ccc34)cc2)no1 [quizartinib, reference compound] ?
A: 2.11

* * *

# System: acute myeloid leukemia cell line MOLM-13
# Procedure text: MOLM-13 cell survival, CellTiter-Glo, single drug testing
# Assay type: cell-based
# Condition label: Homo sapiens, MOLM-13, 72 h, FIG. 3 single drug test with cisplatin control
Endpoint name: pIC50
Numbers only, as −log10 of the molar value.

Q: What measured pIC50 is associated with Cn1c(CCCCCCC(=O)NO)nc2cc(N(CCCl)CCCl)ccc21 on acute myeloid leukemia cell line MOLM-13?
A: 6.15

Values from patent US9993482B2
